- MEASURED_TARGET: T1, EsCas13d, nuclease-dead (Eubacterium siraeum, UniProt B0MS50, R295A;H300A;R849A;H854A)
- T1 sequence: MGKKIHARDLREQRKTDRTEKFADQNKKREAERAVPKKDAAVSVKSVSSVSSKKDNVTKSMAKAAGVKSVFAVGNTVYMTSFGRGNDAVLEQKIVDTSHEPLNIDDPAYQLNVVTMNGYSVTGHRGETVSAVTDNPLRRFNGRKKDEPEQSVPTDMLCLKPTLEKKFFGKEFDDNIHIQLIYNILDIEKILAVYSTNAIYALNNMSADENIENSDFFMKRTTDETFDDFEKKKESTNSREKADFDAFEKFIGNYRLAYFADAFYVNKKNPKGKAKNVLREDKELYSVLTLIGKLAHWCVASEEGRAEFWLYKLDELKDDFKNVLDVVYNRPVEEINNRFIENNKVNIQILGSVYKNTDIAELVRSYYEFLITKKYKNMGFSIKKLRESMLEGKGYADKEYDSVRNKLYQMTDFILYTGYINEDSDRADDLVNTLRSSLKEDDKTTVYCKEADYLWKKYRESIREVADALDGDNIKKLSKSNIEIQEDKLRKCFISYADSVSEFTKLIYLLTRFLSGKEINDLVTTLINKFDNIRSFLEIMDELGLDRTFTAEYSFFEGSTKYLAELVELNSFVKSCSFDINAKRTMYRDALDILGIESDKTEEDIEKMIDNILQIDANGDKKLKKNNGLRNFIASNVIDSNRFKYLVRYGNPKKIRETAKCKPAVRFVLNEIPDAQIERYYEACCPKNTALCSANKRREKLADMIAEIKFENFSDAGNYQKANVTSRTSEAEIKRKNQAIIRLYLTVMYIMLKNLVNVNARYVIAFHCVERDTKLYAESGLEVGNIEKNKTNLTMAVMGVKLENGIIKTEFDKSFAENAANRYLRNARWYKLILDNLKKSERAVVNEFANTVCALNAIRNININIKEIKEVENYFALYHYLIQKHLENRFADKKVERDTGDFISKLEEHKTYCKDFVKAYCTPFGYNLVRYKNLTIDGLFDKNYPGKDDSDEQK
- ASSAY_TEXT: crRNA (strand 1, pre-loaded); Mg2+; 40 mM Tris-HCl pH 7.5, 150 mM NaCl, 6 mM MgCl2, 1 mM DTT, 0.1% Tween-20, 0.2 mg/ml BSA; 25 C; 10 min per concentration, then washed
- TEST_CONDITIONS: tags: His6-TwinStrep-SUMO cleaved; N-terminal SNAP kept (SNAP-Surface 488); label: 3' end held by stalled T7 RNA polymerase
Recorded pKd values for a group of binders are listed next.
Note on units: pKd is unitless, being -log10 of a concentration expressed in mol/L.

Reference set (3 entries):
Ask: Would you kindly share the measured pKd for target 1 del13,del22 (mixed) RNA 1: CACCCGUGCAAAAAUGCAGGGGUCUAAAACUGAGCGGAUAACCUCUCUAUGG RNA 2: GGGAAUGGAUCCACAUCUACGAAUUCGUACAUAGAGAGUUAUCCGCUCACCGAGAUCGGAAGAGCACACGU ?
Result: 7.51

Ask: # query: pKd of entry target 1 C7U,G12A (mixed) RNA 1: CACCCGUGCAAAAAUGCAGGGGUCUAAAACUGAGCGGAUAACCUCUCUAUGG RNA 2: GGGAAUGGAUCCACAUCUACGAAUUCGUACCAUAGAGAGAUUAUUCGCUCACCGAGAUCGGAAGAGCACACGU
Result: 8.16

Ask: Which value of pKd has been reported for target 2 MT 5'PFS AGC 3'PFS UAA (mixed) RNA 1: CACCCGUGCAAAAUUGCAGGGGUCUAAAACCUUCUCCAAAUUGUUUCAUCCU RNA 2: GGGAAUGGAUCCACAUCUACGAAUUCAGCAGGAUGAAACAAUUUGGAGAAGUAAAGAUCGGAAGAGCACACGU in the records?
Result: 8.06

Others:
Ask: Entry target 1 G5C,A20C (mixed) RNA 1: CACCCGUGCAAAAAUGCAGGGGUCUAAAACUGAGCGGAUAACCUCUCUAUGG RNA 2: GGGAAUGGAUCCACAUCUACGAAUUCGUACCCUAGAGAGGUUAUCCCCUCACCGAGAUCGGAAGAGCACACGU has what pKd?
Result: 7.33

Ask: Give the measured pKd of target 1 insC 3' of 17,insU 3' of 16 (mixed) RNA 1: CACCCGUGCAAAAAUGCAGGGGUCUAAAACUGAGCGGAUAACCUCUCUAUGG RNA 2: GGGAAUGGAUCCACAUCUACGAAUUCGUACCAUAGCAUGAGGUUAUCCGCUCACCGAGAUCGGAAGAGCACACGU .
Result: 7.40

Ask: Item under review: target 2 MT 5'PFS CAU 3'PFS CUC (mixed) RNA 1: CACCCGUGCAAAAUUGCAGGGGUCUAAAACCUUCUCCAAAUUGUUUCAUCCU RNA 2: GGGAAUGGAUCCACAUCUACGAAUUCCAUAGGAUGAAACAAUUUGGAGAAGCUCAGAUCGGAAGAGCACACGU . Reported pKd?
Result: 8.17

Ask: I'd like to know its pKd. The binder in question is target 1 MT 5'PFS GCG 3'PFS UUC (mixed) RNA 1: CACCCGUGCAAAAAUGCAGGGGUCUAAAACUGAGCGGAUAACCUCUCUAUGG RNA 2: GGGAAUGGAUCCACAUCUACGAAUUCGCGCCAUAGAGAGGUUAUCCGCUCAUUCAGAUCGGAAGAGCACACGU
Result: 7.97

Ask: Given target 1 C2U,A9C (mixed) RNA 1: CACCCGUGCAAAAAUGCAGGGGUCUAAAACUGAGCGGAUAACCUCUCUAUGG RNA 2: GGGAAUGGAUCCACAUCUACGAAUUCGUACCAUAGAGAGGUUCUCCGCUUACCGAGAUCGGAAGAGCACACGU , state its recorded pKd.
Result: 7.85
